Source listed as patent US7250269B2.

# tested-on: T1, HSA substrate solution; Albumin Human (Homo sapiens, UniProt P02768)
# T1 construct: purchased Sigma-Aldrich Co
# test-summary: Activity of various proteases on HSA substrate solution (released glycated amino acids/peptides assayed with R-FOD)
# Type: biochemical
# test-conditions: pH 8.0; 37° C. for 30 minutes
Listing of recorded ΔA HSA by entry.

- molecule: "Papain: protease, origin Papaya (protein, UniProt P00784 134-345, looked up) Papain: IPEYVDWRQKGAVTPVKNQGSCGSCWAFSAVVTIEGIIKIRTGNLNEYSEQELLDCDRRSYGCNGGYPWSALQLVAQYGIHYRNTYPYEGVQRYCRSREKGPYAAKTDGVRQVQPYNEGALLYSIANQPVSVVLEAAGKDFQLYRGGIFVGPCGNKVDHAVAAVGYGPNYILIKNSWGTGWGENGYIRIKRGTGNSYGVCGLYTSSFYPVKN"
  unit-annotation: "mAbs"
  ΔA HSA: 15
- molecule: "Trypsin: protease, origin Cow pancreas (protein, UniProt P00760 24-246, looked up) Serine protease 1: IVGGYTCGANTVPYQVSLNSGYHFCGGSLINSQWVVSAAHCYKSGIQVRLGEDNINVVEGNEQFISASKSIVHPSYNSNTLNNDIMLIKLKSAASLNSRVASISLPTSCASAGTQCLISGWGNTKSSGTSYPDVLKCLKAPILSDSSCKSAYPGQITSNMFCAGYLEGGKDSCQGDSGGPVVCSGKLQGIVSWGSGCAQKNKPGVYTKVCNYVSWIKQTIASN"
  unit-annotation: "mAbs"
  ΔA HSA: 11
- molecule: "Proteinase K: protease, origin Tritirachium (protein, UniProt P06873 106-384, looked up) Proteinase K: AAQTNAPWGLARISSTSPGTSTYYYDESAGQGSCVYVIDTGIEASHPEFEGRAQMVKTYYYSSRDGNGHGTHCAGTVGSRTYGVAKKTQLFGVKVLDDNGSGQYSTIIAGMDFVASDKNNRNCPKGVVASLSLGGGYSSSVNSAAARLQSSGVMVAVAAGNNNADARNYSPASEPSVCTVGASDRYDRRSSFSNYGSVLDIFGPGTSILSTWIGGSTRSISGTSMATPHVAGLAAYLMTLGKTTAASACRYIADTANKGDLSNIPFGTVNLLAYNNYQA"
  unit-annotation: "mAbs"
  ΔA HSA: 79
